All values here come from patent US8093274B2.

Target: GGTase I (substrate RhoA) (Homo sapiens, UniProt P49354+P53609)
Experiment: GGTase I filter-binding assay with RhoA as substrate
Type: biochemical
Conditions: 50 μM compound; DMSO = 100%; smaller numbers indicate better inhibition; second number of pair; read-out: % activity of GGTase I for protein RhoA in the presence of the compound
Description: The pilot library was screened for inhibitors of protein geranylgeranyltransferase type I. Protein prenyltransferase assays were carried out by using filter binding. Two different substrates, RhoA and K-Ras4B, were used for the assay. […] The % activity of GGTase I was determined as follows: a working solution that contained each compound in DMSO at the concentration of 1 mM was prepared. […]
VALUE TYPE: activity at 50 µM (%)
Please reply with the bare figure in % and do not write the unit itself.

Below, 4 compounds whose answers are already recorded.
[[record]]
structure_smiles_string = "C=CCS[C@H]1[C@@H](C(=O)O)[C@H](c2ccc(C#N)cc2)N(S(=O)(=O)c2ccc(C)cc2)[C@@H]1CCCCCC"
value_type = "activity at 50 µM"
reported_measurement = 6

[[record]]
structure_smiles_string = "CCCC[C@@H]1[C@@H](Sc2ccc(C)cc2)[C@@H](C(=O)O)[C@H](c2cccc(F)c2)N1S(=O)(=O)c1ccc(C)cc1"
value_type = "activity at 50 µM"
reported_measurement = 7.1

[[record]]
structure_smiles_string = "CCCCCC[C@@H]1[C@@H](Sc2ccc(C)cc2)[C@@H](C(=O)O)[C@H](c2ccc(Cl)cc2)N1S(=O)(=O)c1ccccc1"
value_type = "activity at 50 µM"
reported_measurement = 7.5

[[record]]
structure_smiles_string = "CC[C@@H]1[C@@H](Sc2ccc(OC)cc2)[C@@H](C(=O)O)[C@H](c2cccc(Cl)c2)N1S(=O)(=O)c1ccc(C)cc1"
value_type = "activity at 50 µM"
reported_measurement = 6.5


Now look at this entry.
Simply: `Cc1ccc(S(=O)(=O)N2[C@H](CC3CCCC3)[C@@H](SCCC(=O)OC(C)(C)C)[C@@H](C(=O)O)[C@@H]2c2cccc(F)c2)cc1` , GGTase I (substrate RhoA) (Homo sapiens, UniProt P49354+P53609), activity at 50 µM = 8.2
